Data provenance is ChEMBL document CHEMBL6074655.

# test.name: Toxicity in female mouse assessed as mortality rate at 50 mg/kg, iv
# Type: organism-based
# condition.details: in vivo
parameter: mortality (%)
Answers are plain numbers, in %.

Note to self: mortality recorded for O[C@@H]1C[C@H]2CCCN3CCc4c(n1c1ccccc41)[C@H]23 was 64

###

# test.name: Toxicity in male mouse assessed as mortality rate at 50 mg/kg, iv
# Type: organism-based
# condition.details: in vivo
parameter: mortality (%)
One number for each entry, in %.

mortality in this record for O[C@@H]1C[C@H]2CCCN3CCc4c(n1c1ccccc41)[C@H]23 : 70
